Data origin, for the record: PubChem BioAssay (NCI)

- Tested on: SK-MEL-28 melanoma
- ASSAY_TEXT: NCI-60 one-dose screen, 48 h
- TEST_CONTEXT: 10 µM unless noted
Compounds without any hit were thinned out: in the full panel of roughly 83,000, 20% have a hit. The source made the active and inactive calls. How the source made its calls: active means growth percent below 10; inactive means the rest.
Possible outcomes: active, inactive

molecule=Cc1noc(C)c1C(=O)OCc1coc2ccccc2c1=O answer_label=inactive
molecule=CCCNC(=O)Oc1ccc(/C(=C(/C)Cc2ccc(OC)cc2)c2ccc(OCCCN(C)C)cc2)cc1 answer_label=inactive
molecule="C[C@]12C=CC(=O)C=C1CCC1C2[C@@H](O)C[C@@]2(C)C1CC[C@]2(O)C(=O)COC(=O)CCC(=O)O (stereo not given in full)" answer_label=inactive
molecule=COC(=O)c1cc(-c2ccccc2)[nH]c1N/N=C/c1c(Cl)cccc1Cl answer_label=inactive
molecule=COC(=O)[C@]1(C)CCC[C@]2(C)[C@H]3C[C@H]4C(C(C)C)=C[C@]3(CC[C@H]21)[C@H]1[C@@H]4[C@@H](OCCC#N)CC[C@@H]1OCCC#N answer_label=inactive
molecule=O=C(Cn1cc(CN2C(=O)c3ccccc3S2(=O)=O)nn1)Nc1nc2ccccc2s1 answer_label=inactive
molecule=O=C(Nn1c2c(sc1=Nc1ccccc1)C(=O)c1ccccc1C2=O)c1cc2ccc1CCc1ccc(cc1)CC2 answer_label=inactive
molecule=O=C1/C(=C/c2ccc(Cl)cc2)COc2ccc(O)cc21 answer_label=inactive
molecule="COc1cc2c(c(OC)c1OC)C(=O)CC(c1cccc(NC(=O)c3ccc(Br)cc3)c1)O2 (stereo not given)" answer_label=inactive
molecule=O=C(Nc1cc(Cl)ccc1O)c1ccc(Nc2ccnc(C(F)(F)F)c2)cc1 answer_label=inactive
molecule=COc1ccc(C(=O)Nc2ncc(Cc3ccc(F)cc3)s2)cc1 answer_label=inactive
molecule="COc1ccc(CC(C#N)c2cc3ccccc3[nH]2)cc1 (stereo not given)" answer_label=inactive
molecule=CCN(CC)CCOc1ccc(C(=C(C)c2ccc(Cl)cc2)c2ccc(OCCN(CC)CC)cc2)cc1 answer_label=active
molecule="N#CC1=C(N)Oc2c(sc3c(F)cccc23)C1c1ccc(F)cc1 (stereo not given)" answer_label=inactive
molecule=CCn1c(=S)[nH]c2c(=O)n(C)c(=O)n(C)c21 answer_label=inactive
molecule=Oc1ccc(CN2CCC(N3CCCCC3)CC2)c2cccnc12 answer_label=inactive
molecule=CC(C)(C)[Si](C)(C)O[C@H]1C(=O)C=CN2CC=C[C@@H]12 answer_label=inactive
molecule=CC(C)n1cnc2c(=S)nc[nH]c21 answer_label=inactive
molecule=COc1ccc(-c2nc(SCC(C)C)nc(N/N=C\c3ccc(F)cc3)c2C#N)cc1 answer_label=inactive
molecule=O=C(NCCCCNC(=O)OCc1ccc2c(Cl)cc(Cl)c(O)c2n1)OCc1ccc2c(Cl)cc(Cl)c(O)c2n1 answer_label=inactive

====

Reported values of growth for individual entries
- Test system: M14 melanoma
- ASSAY_TEXT: NCI-60 one-dose screen, 48 h (100 = growth as untreated, 0 = no growth, -100 = all killed)
- TEST_CONTEXT: 10 µM unless noted
This is part of a sample that, as a whole, favours compounds with a hit. Of some 83,000 tested, about 20% had one in any assay.
MEASURED_PROPERTY: growth (%)

structure_smiles=COc1ccccc1NC(=O)Cn1cc(CN2CCN(c3ccnc4cc(Cl)ccc34)CC2)nn1 measured_property=growth unit_tag=% test_value=106
structure_smiles=COc1ccc(-c2nc(SCC(C)C)nc(N/N=C\c3ccc(F)cc3)c2C#N)cc1 measured_property=growth unit_tag=% test_value=92.7
structure_smiles=COc1cc2oc(-c3cccc(NC(=O)c4cccc(Br)c4)c3)cc(=O)c2c(OC)c1OC measured_property=growth unit_tag=% test_value=59
structure_smiles=CSc1nc2sc3c(c2c(=O)n1-c1ccc([N+](=O)[O-])cc1)CCCCC3 measured_property=growth unit_tag=% test_value=94.9
structure_smiles=O=C(/C=C(/C=C/c1cccc2[nH]ccc12)OB(F)F)/C=C/c1cccc2[nH]ccc12 measured_property=growth unit_tag=% test_value=-34.2

====

- System: COLO 205 colon
- ASSAY_TEXT: NCI-60 one-dose screen, 48 h
- TEST_CONTEXT: 10 µM unless noted
Compounds without any hit were thinned out: in the full panel of roughly 83,000, 20% have a hit. Calls of active or inactive are those of the source. The calls were made as follows: active = growth percent below 10; inactive = the rest.
Possible outcomes: active, inactive

molecule=CCCCC[C@@H]1Cc2cc(O)c(C(=O)O)c3c2[C@H](C[C@]2(OC[C@@H](CC(=O)[C@@](C)(CC)C(=O)OC)[C@@H]2C)O3)O1 answer_label=inactive
molecule=CCn1c(SCC(=O)c2ccc(Br)cc2)nnc1-c1ccncc1 answer_label=inactive
molecule=CC1=Nc2cnc(Nc3ccc(OCCN4CCCC4)cc3)nc2Nc2ccccc21 answer_label=inactive
molecule=COc1ccc(/C=N/NC(=O)CCN2c3ccccc3Sc3ccccc32)cc1 answer_label=inactive
molecule=N#CCSc1nnc2n(Cc3ccccc3)c(=O)c3c4c(sc3n12)CCCC4 answer_label=inactive
molecule=CN(C)CC(=O)Nc1ccc2ncnc(Nc3ccc(Oc4cccc(C(F)(F)F)c4)c(Cl)c3)c2c1 answer_label=inactive
molecule=CCOC(=O)c1cc2c(=O)oc3ccccc3c2oc1=O answer_label=inactive
molecule=O=C1c2c(c3c4ccc(Br)cc4oc3c3[nH]c4ccccc4c23)C(=O)N1O answer_label=inactive
molecule=O=C(NCCCN1CCOCC1)c1cccc(N2C(=O)/C(=C/c3ccc(F)cc3)SC2=S)c1 answer_label=inactive
molecule=Oc1c(Cl)cc(Cl)c2ccc(Cn3cc(-c4cc(F)cc(F)c4)nn3)nc12 answer_label=inactive
molecule="O=[N+]([O-])C1C(c2ccccc2)C12c1ccccc1-c1ccccc12 (centres undefined)" answer_label=inactive
molecule="O=C(c1ccccc1)C1C(=O)N2C(=S)N(c3ccccc3)C(=O)C2C1c1ccc(Cl)cc1 (centres undefined)" answer_label=inactive
molecule=CCOC(=O)c1nc(Nc2ccc(NC(=O)Nc3ccc(F)cc3)cc2)c2ccccc2n1 answer_label=inactive
molecule=COP(=O)(OC)C(C)(C)CC(=O)CC(C#N)(C#N)C(C#N)C#N answer_label=inactive
molecule=O=C1NC(=O)c2c1c1c3ccccc3ccc1c1[nH]c3ccc(Br)cc3c21 answer_label=active
molecule=O=C1c2ccc3c4ccc5c6c(ccc(c7ccc(c2c37)C(=O)N1CCC[P+](c1ccccc1)(c1ccccc1)c1ccccc1)c64)C(=O)N(CCC[P+](c1ccccc1)(c1ccccc1)c1ccccc1)C5=O answer_label=inactive
molecule="NC(=O)CCC(C(=O)O)N1C(=O)c2ccc(O)cc2C1=O (centres undefined)" answer_label=inactive
molecule=O=C1/C(=C/c2cccs2)SC(=S)N1CCCN1CCOCC1 answer_label=inactive
molecule=COCCNC(=O)c1ccc(-c2nc3ccc4[nH]ncc4c3c3c2CCCC3)cc1 answer_label=inactive

====

- Test system: HCT-116 colon
- ASSAY_TEXT: NCI-60 one-dose screen, 48 h (100 = growth as untreated, 0 = no growth, -100 = all killed)
- TEST_CONTEXT: 10 µM unless noted
- Experimental: Growth inhibition of the HCT-116 human tumor cell line is measured as a screen for anti-cancer activity. Cells are grown in 96 well plates and exposed to the test compound for 48 hours. Compounds are tested at a single concentration, which is 10^-5 M for most compounds. The reported endpoint is percent growth (GI% or GIPRCNT), where numbers from 0 - 100% represent growth inhibition, and numbers from -100% - 0 represent cell death. For example, a value of 40 represents 60% growth inhibition. […]
Compounds without any hit were thinned out: in the full panel of roughly 83,000, 20% have a hit.
Entries get a class label from measured growth. See ranges: class A = under 20%, class B = from 20% up to 50%, class C = 50% and over

compound=O=C(Cn1c(=O)sc2ccccc21)NNS(=O)(=O)c1ccccc1[N+](=O)[O-] answer_label="class C"
compound=N=C(N)c1ccc(-c2ccc(-c3ccc(F)cc3)o2)o1 answer_label="class A"
compound=CN1CCN(c2ccc(NC(=O)c3cncnc3Nc3ccc(OCc4ccccn4)c(Cl)c3)cc2)CC1 answer_label="class A"
compound=Cc1cc(=O)[nH]c2c(C#N)cnn12 answer_label="class C"
compound=O=[N+]([O-])c1ccc(N/N=C(/C(=N/Nc2ccc([N+](=O)[O-])cc2)c2ccccc2)c2ccccc2)cc1 answer_label="class C"
compound=Clc1ccc(Nc2nnc(COc3ccccc3)c3ccccc23)cc1 answer_label="class A"
compound=O=C(Cc1ccccc1)Nc1nc(O)c(/C=C2\C(=O)C=Cc3ccccc32)s1 answer_label="class C"
compound="N#CC1=C(N)Oc2c(sc3c(F)cccc23)C1c1ccc(F)cc1 (stereo not given)" answer_label="class A"
compound=Fc1ccc(-c2nn(-c3ccccc3)cc2-c2nc3ccccc3o2)cc1 answer_label="class B"
compound=C=CC(=O)NCc1ccc(Nc2nccc(-c3ccc(N4CCCC4)c(C#N)c3)n2)cc1 answer_label="class B"

====

- System: HT29 colon
- ASSAY_TEXT: NCI-60 one-dose screen, 48 h (100 = growth as untreated, 0 = no growth, -100 = all killed)
- TEST_CONTEXT: 10 µM unless noted
Compounds without any hit were thinned out: in the full panel of roughly 83,000, 20% have a hit.
The following compounds are shown together with reported growth values.
MEASURED_PROPERTY: growth (%)

compound=CCOC(=O)c1c2c(n3ccc(C)cc13)C(=O)c1ccccc1C2=O test_value=87.8
compound="Nc1ncnc2c1N=C(c1ccc(Cl)cc1)CC(c1ccc3c(c1)OCO3)N2 (stereo not given)" test_value=91.7
compound=Clc1ccc(CNc2c3ccccc3nc3ccccc23)cc1 test_value=15
compound="CSc1nnc(-c2cnn3c2NC(c2ccccc2)C3)n1-c1ccc(C(F)(F)F)cc1 (stereo not given)" test_value=28.4
compound=Cc1nc(-c2ccccc2)cc2c(O)c(C(=O)NN)[nH]c(=O)c12 test_value=114
compound=CCCCCCCCn1ccc2cc(NC(=O)CN3CCN(c4nc(C)cc(Cl)n4)CC3)ccc21 test_value=65.3
compound="N#CC1=C(N)Oc2c(sc3c(F)cccc23)C1c1ccc(F)cc1 (stereo not given)" test_value=6.86
compound=C#CCOc1cccc(Nc2ncnc3c(NC(=O)C=C)cccc23)c1 test_value=5.3
compound=O=C(Nc1cc(Cl)ccc1O)c1ccc(Nc2ccnc(C(F)(F)F)c2)cc1 test_value=95.5
compound=CC/C(=C(/c1ccc(Cl)cc1)c1ccc(OCCN2CCCC2)cc1)c1ccc(OC)cc1 test_value=13.7
compound=CO[C@H]1/C=C(/C)CCC[C@H](C)[C@H](O)[C@@H](C)C(=O)C(C)(C)[C@@H](O)CC(=O)O[C@@H]1/C(C)=C/c1csc(C)n1 test_value=-4.27
compound=CCOC(=O)CSc1ncnc2c1c(-c1ccccc1)c(-c1ccccc1)n2-c1ccc(C)cc1 test_value=63.9
compound=CC(=O)Cc1nsc(NC(=O)c2cc(-c3cc(Cl)cc(Cl)c3)oc2C)n1 test_value=102
compound=O=C(OCc1ccc2cccc(O)c2n1)N1CCN(C(=O)c2cc3cc(F)ccc3[nH]2)CC1 test_value=-70.4
compound=CNC(=O)c1c(NC(=O)c2ccc(C(F)(F)F)cc2)sc2c1CCC(=O)C2 test_value=5.12
compound=COc1cc(-c2csc(NC(=O)c3cc(-n4cnc(C)c4)cc(C(F)(F)F)c3)n2)cc(OC)c1OC test_value=52.6
compound=Cc1oc(-c2ccc(Cl)cc2)nc1/C=C/C(=O)c1ccccc1 test_value=107
compound=Cc1ccc(-c2nn(-c3ccccc3)cc2C=C2C(=O)ON=C2C(C)C)cc1 test_value=44.5
compound=COc1ccc2cc(C(=O)c3coc4ccc(O)cc34)ccc2c1 test_value=95.6
compound=COC(=O)c1n[nH]c2ccc3nc(-c4cn[nH]c4C(F)(F)F)c4c(c3c12)CCCC4 test_value=25.7
